tested on: MV4-11 (leukemia) cells; experiment: In vitro cell proliferation inhibition assay (CellTiter-Glo), MV4-11; assay type: cell-based, human; settings: Homo sapiens, MV4-11, 120 h, MV4-11 cells
recorded_endpoint: IC50 (nM)

Example cases with answers are listed next.
molecule="CNc1nc2ccc(F)cc2n1-c1nc(-c2c(C)nn(C3CCNCC3)c2C(F)(F)F)cc(N2CCOC[C@H]2C)n1 [Compound D22]" target_of_assay="MV4-11 (leukemia) cells" endpoint_result=920
molecule="CNc1nc2cc(Cl)ccc2n1-c1nc(-c2c(C)nn(C3CCNCC3)c2C(F)(F)F)cc(N2CCOC[C@H]2C)n1 [Compound D25]" target_of_assay="MV4-11 (leukemia) cells" endpoint_result=990
molecule="CNc1nc2ccccc2n1-c1nc(-c2c(C(F)(F)F)nn(CS(C)(=O)=O)c2C)cc(N2CCOC[C@H]2C)n1 [Compound D44]" target_of_assay="MV4-11 (leukemia) cells" endpoint_result=680

[P] COc1c(-c2cc(N3CCOC[C@H]3C)nc(-c3ccnc4[nH]ccc34)n2)c(C(F)(F)F)nn1C1CCN(C)CC1 [Compound D14]
[Q] Cc1c(-c2cc(N3CCOC[C@H]3C)nc(-c3cccc4[nH]ccc34)n2)c(C(F)(F)F)nn1C1CCNCC1 [Compound D18]
[R] Cc1nn(C2CCNCC2)c(C(F)(F)F)c1-c1cc(N2CCOC[C@H]2C)nc(-n2c(N)nc3ccccc32)n1 [Compound D6]
Ascending by IC50, please: list the molecules accordingly. Write out the labels following the order that was asked for. R, Q, P

* * *

test system: MV4-11 (leukemia) cells; assay: In vitro cell proliferation inhibition assay (CellTiter-Glo), MV4-11; format: cell-based, human; conditions: MV4-11 cells, 120 hours
pIC50: −log10 of the molar value.
recorded_endpoint: pIC50

Example cases with answers are listed next.
compound="Cc1nn(C[C@H]2CCCN2)c(C(F)(F)F)c1-c1cc(N2CCOC[C@H]2C)nc(-c2cc(F)cc3[nH]ccc23)n1 [Compound D53]" recorded_endpoint=pIC50 endpoint_result=6.21
compound="Cc1nn(C[C@@H]2CCCN2)c(C(F)(F)F)c1-c1cc(N2CCOC[C@H]2C)nc(-c2cc(F)cc3[nH]ccc23)n1 [Compound D52]" recorded_endpoint=pIC50 endpoint_result=6.23
compound="Cc1nn(C2CCNCC2)c(C(F)(F)F)c1-c1cc(C23CCOCC2C3)nc(-c2cc(F)cc3[nH]ccc23)n1 (stereo not shown) [Compound D49]" recorded_endpoint=pIC50 endpoint_result=6.26
compound="Cc1nn(C2CCNCC2(F)F)c(C)c1-c1cc(N2CCOC[C@H]2C)nc(-c2ccnc3[nH]ccc23)n1 (stereo partly shown) [Compound D57]" recorded_endpoint=pIC50 endpoint_result=6.66

[A] CNc1nc2cc(F)ccc2n1-c1nc(-c2c(C)nn(CC3(C)COC3)c2C(F)(F)F)cc(N2CCOC[C@H]2C)n1 [Compound D51]
[B] Cc1nn(C2CCNCC2)c(C(F)(F)F)c1-c1cc(N2CCOC[C@H]2C)nc(-n2c(NC(=O)C3CC3)nc3ccccc32)n1 [Compound D38]
[C] CNc1nc2cc(F)ccc2n1-c1nc(-c2c(C(F)(F)F)nn(C3CCCNC3)c2C)cc(N2CCOC[C@H]2C)n1 (stereo partly shown) [Compound D33]
Ascending by pIC50, please: list the compounds accordingly. Write out the labels following the order that was asked for. C, A, B
